TARGET OR SYSTEM: human N-type Ca channel (Homo sapiens, UniProt Q00975)
Sequence (Q00975 whole entry): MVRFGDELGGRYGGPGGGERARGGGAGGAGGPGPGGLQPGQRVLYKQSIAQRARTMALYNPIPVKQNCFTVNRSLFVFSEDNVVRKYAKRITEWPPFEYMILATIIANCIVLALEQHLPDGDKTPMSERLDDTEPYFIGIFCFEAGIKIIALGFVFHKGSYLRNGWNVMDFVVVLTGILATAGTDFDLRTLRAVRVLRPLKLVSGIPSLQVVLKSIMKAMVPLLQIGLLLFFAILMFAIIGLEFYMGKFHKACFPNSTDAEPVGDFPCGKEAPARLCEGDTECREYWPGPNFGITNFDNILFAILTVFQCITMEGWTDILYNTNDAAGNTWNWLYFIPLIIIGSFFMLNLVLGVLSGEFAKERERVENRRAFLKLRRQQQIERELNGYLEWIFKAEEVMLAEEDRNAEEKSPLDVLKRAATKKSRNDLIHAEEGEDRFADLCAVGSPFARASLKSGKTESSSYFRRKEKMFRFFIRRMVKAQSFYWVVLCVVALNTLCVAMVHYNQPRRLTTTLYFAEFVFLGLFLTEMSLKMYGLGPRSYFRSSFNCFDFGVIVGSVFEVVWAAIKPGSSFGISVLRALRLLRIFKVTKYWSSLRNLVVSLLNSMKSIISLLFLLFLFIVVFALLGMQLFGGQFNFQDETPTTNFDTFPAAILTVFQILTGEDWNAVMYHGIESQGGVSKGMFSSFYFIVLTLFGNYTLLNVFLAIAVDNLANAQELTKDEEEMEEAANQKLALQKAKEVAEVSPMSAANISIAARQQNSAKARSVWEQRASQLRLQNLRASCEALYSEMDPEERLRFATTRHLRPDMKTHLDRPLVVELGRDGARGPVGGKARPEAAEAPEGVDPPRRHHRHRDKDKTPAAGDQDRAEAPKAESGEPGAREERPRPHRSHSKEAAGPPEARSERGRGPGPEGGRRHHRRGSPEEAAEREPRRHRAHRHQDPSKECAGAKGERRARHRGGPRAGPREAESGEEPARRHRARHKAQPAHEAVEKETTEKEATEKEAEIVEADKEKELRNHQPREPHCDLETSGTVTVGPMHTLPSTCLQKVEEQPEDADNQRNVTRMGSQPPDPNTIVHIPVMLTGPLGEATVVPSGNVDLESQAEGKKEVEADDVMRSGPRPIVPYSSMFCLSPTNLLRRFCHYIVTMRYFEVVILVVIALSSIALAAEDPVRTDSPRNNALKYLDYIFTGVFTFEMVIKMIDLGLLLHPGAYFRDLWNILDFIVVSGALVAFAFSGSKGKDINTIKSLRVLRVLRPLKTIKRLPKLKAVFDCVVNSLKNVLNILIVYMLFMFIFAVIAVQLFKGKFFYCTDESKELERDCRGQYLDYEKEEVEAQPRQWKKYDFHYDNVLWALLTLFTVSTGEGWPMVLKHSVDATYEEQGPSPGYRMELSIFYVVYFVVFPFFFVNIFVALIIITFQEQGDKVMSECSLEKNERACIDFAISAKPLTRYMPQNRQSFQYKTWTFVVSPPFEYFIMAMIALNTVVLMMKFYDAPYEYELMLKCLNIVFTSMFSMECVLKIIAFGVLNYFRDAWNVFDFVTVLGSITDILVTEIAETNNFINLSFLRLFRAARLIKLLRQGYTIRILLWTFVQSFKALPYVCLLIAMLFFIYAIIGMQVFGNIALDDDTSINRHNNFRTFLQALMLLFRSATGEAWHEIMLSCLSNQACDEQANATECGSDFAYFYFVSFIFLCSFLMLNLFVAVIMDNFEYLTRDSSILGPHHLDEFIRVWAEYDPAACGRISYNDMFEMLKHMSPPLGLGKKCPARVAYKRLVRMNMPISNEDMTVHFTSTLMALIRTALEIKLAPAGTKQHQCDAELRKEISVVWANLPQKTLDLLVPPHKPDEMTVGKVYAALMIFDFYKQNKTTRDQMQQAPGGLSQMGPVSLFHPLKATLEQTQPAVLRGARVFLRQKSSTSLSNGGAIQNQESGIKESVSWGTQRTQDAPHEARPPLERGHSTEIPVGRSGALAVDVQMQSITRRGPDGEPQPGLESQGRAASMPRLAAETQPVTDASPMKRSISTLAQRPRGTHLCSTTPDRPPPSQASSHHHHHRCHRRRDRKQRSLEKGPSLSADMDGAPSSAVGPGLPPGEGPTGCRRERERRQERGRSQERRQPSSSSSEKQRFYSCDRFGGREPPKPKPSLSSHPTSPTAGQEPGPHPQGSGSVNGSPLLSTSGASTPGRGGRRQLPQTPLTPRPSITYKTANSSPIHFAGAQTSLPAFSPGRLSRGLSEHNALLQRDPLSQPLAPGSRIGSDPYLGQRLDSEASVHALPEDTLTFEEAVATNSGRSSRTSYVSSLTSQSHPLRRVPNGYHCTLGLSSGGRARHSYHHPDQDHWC
Sequence (P54284 whole entry partner): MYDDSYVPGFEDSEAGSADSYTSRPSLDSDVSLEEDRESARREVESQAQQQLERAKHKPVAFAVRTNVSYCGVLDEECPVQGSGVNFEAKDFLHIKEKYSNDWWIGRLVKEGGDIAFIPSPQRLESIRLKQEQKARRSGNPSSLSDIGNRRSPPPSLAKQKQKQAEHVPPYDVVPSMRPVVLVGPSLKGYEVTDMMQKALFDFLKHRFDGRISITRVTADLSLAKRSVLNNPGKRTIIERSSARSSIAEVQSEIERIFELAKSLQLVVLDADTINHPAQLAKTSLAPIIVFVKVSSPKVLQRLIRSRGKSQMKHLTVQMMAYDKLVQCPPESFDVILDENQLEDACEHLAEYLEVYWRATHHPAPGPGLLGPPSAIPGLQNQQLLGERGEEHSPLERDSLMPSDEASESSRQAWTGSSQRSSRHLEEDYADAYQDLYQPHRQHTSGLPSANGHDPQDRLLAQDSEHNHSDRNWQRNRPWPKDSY
Sequence (P54289 25-956 partner limits assumed): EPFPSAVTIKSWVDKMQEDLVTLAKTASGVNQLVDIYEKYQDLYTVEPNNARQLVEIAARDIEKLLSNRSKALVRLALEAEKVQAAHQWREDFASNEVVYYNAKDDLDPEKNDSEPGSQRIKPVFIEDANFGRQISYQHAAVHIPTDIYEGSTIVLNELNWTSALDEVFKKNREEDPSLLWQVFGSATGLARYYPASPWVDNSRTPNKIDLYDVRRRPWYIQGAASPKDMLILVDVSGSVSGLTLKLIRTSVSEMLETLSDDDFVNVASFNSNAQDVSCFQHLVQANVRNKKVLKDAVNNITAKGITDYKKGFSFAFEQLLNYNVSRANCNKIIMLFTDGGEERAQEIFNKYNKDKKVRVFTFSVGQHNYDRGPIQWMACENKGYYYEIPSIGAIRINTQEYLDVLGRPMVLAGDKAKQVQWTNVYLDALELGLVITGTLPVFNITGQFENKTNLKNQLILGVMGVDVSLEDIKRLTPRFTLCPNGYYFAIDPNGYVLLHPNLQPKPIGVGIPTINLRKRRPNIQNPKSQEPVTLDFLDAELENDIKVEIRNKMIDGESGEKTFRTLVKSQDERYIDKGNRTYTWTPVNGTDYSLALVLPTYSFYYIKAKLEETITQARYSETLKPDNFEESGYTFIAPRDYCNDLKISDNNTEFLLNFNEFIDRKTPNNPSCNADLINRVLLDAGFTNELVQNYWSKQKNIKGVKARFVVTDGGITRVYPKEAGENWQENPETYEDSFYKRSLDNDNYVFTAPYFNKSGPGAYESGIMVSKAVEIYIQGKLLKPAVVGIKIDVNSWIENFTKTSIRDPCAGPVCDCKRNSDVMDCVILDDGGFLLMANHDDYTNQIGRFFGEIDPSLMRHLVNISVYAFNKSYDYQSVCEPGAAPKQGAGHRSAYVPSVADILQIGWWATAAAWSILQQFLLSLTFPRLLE
Sequence (P54289 957-1103 partner limits assumed): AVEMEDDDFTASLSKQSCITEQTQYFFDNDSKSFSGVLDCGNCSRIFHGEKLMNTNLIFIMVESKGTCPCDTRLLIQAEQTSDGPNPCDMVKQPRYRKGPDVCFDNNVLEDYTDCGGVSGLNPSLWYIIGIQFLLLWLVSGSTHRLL
RUN DESCRIPTION: Electrophysiological response, QPatch (depolarization -80 mV to +20 mV)
SETUP CONDITIONS: N Type IC50 Data Qpatch Pulse=15, Pulse=15; concentration range 0.3-10 µM
MEASURED ENDPOINT: IC50 (µM)

{"COMPOUND": "COc1ccccc1-c1nc(C2CC(C)(C)OC(C)(C)C2)cn1-c1ccc(F)c(Cl)c1 [Compound 45]", "TARGET OR SYSTEM": "human N-type Ca channel (Homo sapiens, UniProt Q00975)", "IC50 / µM": 0.671}

A: COc1ccccc1-c1nc(C2=CC(C)(C)OC(C)(C)C2)cn1-c1ccc(Br)c(F)c1 [Compound 125]
B: CCOc1ccc(-n2cc(C3CC(C)(C)OC(C)(C)C3)nc2-c2cccnc2OC)cn1 [Compound 75]
C: COc1ncccc1-c1nc(C2CC(C)(C)OC(C)(C)C2)cn1-c1ccc(Br)c(F)c1 [Compound 65]
Query: Parameters: sort_field (IC50), sort_dir (desc). Return the labels ranked in the requested order, please.
Result: C, B, A
(C: 8.6 µM, B: 4.2 µM, A: 2.3 µM)

A: COc1ccccc1-c1nc(C2(O)CC(C)(C)OC(C)(C)C2)cn1-c1ccc(F)c(F)c1 [Compound 107]
B: COc1ncccc1-c1nc(C2CC(C)(C)OC(C)(C)C2)cn1-c1ccc(C#N)cc1 [Compound 43]
Query: Select the item whose IC50 value is smaller, choosing between A and B . Respond using the label that marks the chosen record.
Result: A

###

TARGET OR SYSTEM: human N-type Ca channel (Homo sapiens)
RUN DESCRIPTION: Calcium influx assay (FDSS), KCl depolarization, Fluo8 dye
Assay type: cell-based
Parameters: host or cells: HEK 293
SETUP CONDITIONS: HEK 293 cells expressing human N-type Ca channel; 100 mM KCl; read-out: N Type IC50 Data FDSS
pIC50: −log10 of the molar value.
MEASURED ENDPOINT: pIC50

Field: example entries. Status: answers known.
{"SMILES STRUCTURE": "COc1cccnc1-c1nc(C2CC(C)(C)OC(C)(C)C2)cn1-c1ccc(F)c(Cl)c1", "TARGET OR SYSTEM": "human N-type Ca channel (Homo sapiens)", "NUMERIC READOUT": 6.23}
{"SMILES STRUCTURE": "COc1ccccc1-c1nc(C2CC(C)(C)OC(C)(C)C2)cn1-c1ccc(Br)c(F)c1", "TARGET OR SYSTEM": "human N-type Ca channel (Homo sapiens)", "NUMERIC READOUT": 6.75}
{"SMILES STRUCTURE": "COc1cc(-n2cc(C3CC(C)(C)OC(C)(C)C3)nc2-c2cccnc2OC)ccc1C#N", "TARGET OR SYSTEM": "human N-type Ca channel (Homo sapiens)", "NUMERIC READOUT": 5.00}
{"SMILES STRUCTURE": "COc1cc(-n2cc(C3CC(C)(C)OC(C)(C)C3)nc2-c2cccnc2OC)ccc1F", "TARGET OR SYSTEM": "human N-type Ca channel (Homo sapiens)", "NUMERIC READOUT": 5.15}
{"SMILES STRUCTURE": "COc1ncccc1-c1nc(C2CC(C)(C)OC(C)(C)C2)cn1-c1ccc(C)c(C#N)c1", "TARGET OR SYSTEM": "human N-type Ca channel (Homo sapiens)", "NUMERIC READOUT": 6.09}

a: COc1ccccc1-c1nc(C2CC(C)(C)OC(C)(C)C2)cn1S(=O)(=O)C1CC1
b: COc1cnccc1-c1nc(C2CC(C)(C)OC(C)(C)C2)cn1-c1ccc(Cl)c(F)c1
c: COc1ccccc1-c1nc(C2CC(C)(C)OC(C)(C)C2)cn1S(=O)(=O)C(F)(F)F
Query: Arrange the 3 entries by pIC50 so the values rise. The reply should contain the labels ordered as requested.
Result: a, c, b
(a: 5.00, c: 6.26, b: 6.70)
